The measurements presented in this section are drawn from patent US10577368B2.

- Tgt: UniProtKB Q60613
- Sequence (Q60613 whole entry): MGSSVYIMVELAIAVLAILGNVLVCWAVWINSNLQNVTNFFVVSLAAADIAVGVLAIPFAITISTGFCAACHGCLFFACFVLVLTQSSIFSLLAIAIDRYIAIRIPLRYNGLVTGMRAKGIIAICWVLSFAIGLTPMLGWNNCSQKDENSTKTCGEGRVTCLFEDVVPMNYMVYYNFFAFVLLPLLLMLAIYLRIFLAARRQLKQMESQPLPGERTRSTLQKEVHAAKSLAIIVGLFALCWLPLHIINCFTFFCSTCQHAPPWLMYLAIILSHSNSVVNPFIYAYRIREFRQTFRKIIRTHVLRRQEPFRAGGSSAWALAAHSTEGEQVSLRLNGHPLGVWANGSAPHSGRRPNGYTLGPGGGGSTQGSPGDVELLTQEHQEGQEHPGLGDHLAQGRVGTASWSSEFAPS
- Protocol details: Competition binding at mA2AAR, HEK293 cell membranes
- Particulars: read-out: A2AAR % inhibition, mouse data (m) (converted)
Where inhibition at 10 µM equals or exceeds 10%, the correct label is True; where it does not, the label is False.

CNC(=O)[C@@]12C[C@@H]1[C@@H](n1cnc3c(NC)nc(C#Cc4cnn(C)c4)nc31)[C@H](O)[C@@H]2O    True
CNC(=O)[C@@]12C[C@@H]1[C@@H](n1cnc3c(NC)nc(C#Cc4cnccn4)nc31)[C@H](O)[C@@H]2O    True
CNC(=O)[C@@]12C[C@@H]1[C@@H](n1cnc3c(NC)nc(C#Cc4ccco4)nc31)[C@H](O)[C@@H]2O    True
CNC(=O)[C@@]12C[C@@H]1[C@@H](n1cnc3c(NC)nc(C#Cc4cccs4)nc31)[C@H](O)[C@@H]2O    False
CNC(=O)[C@@]12C[C@@H]1[C@@H](n1cnc3c(NC)nc(C#Cc4ccc(Cl)s4)nc31)[C@H](O)[C@@H]2O    False

###

- Tgt: Alpha 2A adrenergic receptor (Homo sapiens (Human))
- Sequence (P08913 whole entry): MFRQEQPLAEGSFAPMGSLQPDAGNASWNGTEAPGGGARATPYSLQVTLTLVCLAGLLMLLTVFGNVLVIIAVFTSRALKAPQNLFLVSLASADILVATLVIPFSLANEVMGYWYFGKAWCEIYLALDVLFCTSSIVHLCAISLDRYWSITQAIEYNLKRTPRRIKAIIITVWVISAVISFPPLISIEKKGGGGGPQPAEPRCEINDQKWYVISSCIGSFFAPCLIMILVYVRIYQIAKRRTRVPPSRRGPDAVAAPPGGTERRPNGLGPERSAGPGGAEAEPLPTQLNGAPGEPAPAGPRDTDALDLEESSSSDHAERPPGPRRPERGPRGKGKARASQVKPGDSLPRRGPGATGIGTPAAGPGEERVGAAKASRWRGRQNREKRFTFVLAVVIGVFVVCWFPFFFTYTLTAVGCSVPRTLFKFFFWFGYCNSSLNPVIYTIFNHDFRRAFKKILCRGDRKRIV
Measurement kind: Ki (µM)

CNC(=O)[C@@]12C[C@@H]1[C@@H](n1cnc3c(NC)nc(C#Cc4cnccn4)nc31)[C@H](O)[C@@H]2O    7.9

###

- Protocol details: Bioavailability / plasma pharmacokinetics
- Assay type: in vivo
- Particulars: rat, po, p.o. 3 mg/kg, male SD rats
- Experimental: Male SD rats were dosed intravenously at 1 mg/kg and orally at 1, 3, and 10 mg/kg. Plasma concentration as a function of time is depicted in FIG. 15.
Measurement kind: half-life

CNC(=O)[C@@]12C[C@@H]1[C@@H](n1cnc3c(NC)nc(C#Cc4ccc(Cl)s4)nc31)[C@H](O)[C@@H]2O [Compound 32]    5.3 h

###

- System: muscarinic, adrenergic, dopamine, GABA, histamine, opiate, serotonin receptors and transporters
- Protocol details: Off-target binding panel (receptors and transporters of Table 5)
- Particulars: 10 μM
Measurement kind: Interactions at other receptors of the off-target panel

CNC(=O)[C@@]12C[C@@H]1[C@@H](n1cnc3c(NC)nc(C#Cc4ccco4)nc31)[C@H](O)[C@@H]2O    No interactions
CNC(=O)[C@@]12C[C@@H]1[C@@H](n1cnc3c(NC)nc(C#Cc4cnn(C)c4)nc31)[C@H](O)[C@@H]2O    No interactions
CNC(=O)[C@@]12C[C@@H]1[C@@H](n1cnc3c(NC)nc(C#Cc4ccc(Cl)s4)nc31)[C@H](O)[C@@H]2O    No interactions

###

- Tgt: hA2AAR (Homo sapiens (Human))
- Protocol details: Radioligand binding at hA2AAR, HEK293 cell membranes, [3H]CGS21680
- Particulars: read-out: hA2AAR % inhibition
Where inhibition at 10 µM equals or exceeds 20%, the correct label is Yes; where it does not, the label is No.

CNC(=O)[C@@]12C[C@@H]1[C@@H](n1cnc3c(NC)nc(C#CC4CC4)nc31)[C@H](O)[C@@H]2O    No
CNC(=O)[C@@]12C[C@@H]1[C@@H](n1cnc3c(NC)nc(C#Cc4cc[nH]n4)nc31)[C@H](O)[C@@H]2O    No
CNC(=O)[C@@]12C[C@@H]1[C@@H](n1cnc3c(NC)nc(C#Cc4cc(C)c(C)o4)nc31)[C@H](O)[C@@H]2O    Yes
CNC(=O)[C@@]12C[C@@H]1[C@@H](n1cnc3c(NC)nc(C#Cc4ncccn4)nc31)[C@H](O)[C@@H]2O    Yes
CNC(=O)[C@@]12C[C@@H]1[C@@H](n1cnc3c(NC)nc(C#Cc4cccnn4)nc31)[C@H](O)[C@@H]2O    No
CNC(=O)[C@@]12C[C@@H]1[C@@H](n1cnc3c(NC)nc(C#CC4CCCCC4)nc31)[C@H](O)[C@@H]2O    Yes

###

- Protocol details: Bioavailability / plasma pharmacokinetics
- Type: in vivo
- Particulars: rat, po, p.o. 10 mg/kg, male SD rats, read-out: Cmax nM
Measurement kind: Cmax (nM)

CNC(=O)[C@@]12C[C@@H]1[C@@H](n1cnc3c(NC)nc(C#Cc4ccc(Cl)s4)nc31)[C@H](O)[C@@H]2O [Compound 32]    711

###

pKi: −log10 of the molar value.
This section lists pKi readings for hA3AR (Homo sapiens (Human), UniProt P0DMS8).
Measurement kind: pKi

CNC(=O)[C@]12CC1[C@@H](n1cnc3c(NCc4cccc(Cl)c4)nc(N=[N+]=[N-])nc31)[C@H](O)C2O (stereo partly shown) [Compound 124]    8.97
CNC(=O)[C@]12CC1[C@@H](n1cnc3c(NCCc4ccccc4)nc(N=[N+]=[N-])nc31)[C@H](O)C2O (stereo partly shown) [Compound 117]    9.07
CNC(=O)[C@]12CC1[C@@H](n1cnc3c(NCCc4ccccc4)nc(I)nc31)[C@H](O)C2O (stereo partly shown) [Compound 119]    9.04
CNC(=O)[C@]12CC1[C@@H](n1cnc3c(NC)nc(I)nc31)[C@H](O)C2O (stereo partly shown) [Compound 114]    8.72

###

- Tgt: Alpha 2B adrenergic receptor (Homo sapiens (Human))
- Sequence (P18089 whole entry): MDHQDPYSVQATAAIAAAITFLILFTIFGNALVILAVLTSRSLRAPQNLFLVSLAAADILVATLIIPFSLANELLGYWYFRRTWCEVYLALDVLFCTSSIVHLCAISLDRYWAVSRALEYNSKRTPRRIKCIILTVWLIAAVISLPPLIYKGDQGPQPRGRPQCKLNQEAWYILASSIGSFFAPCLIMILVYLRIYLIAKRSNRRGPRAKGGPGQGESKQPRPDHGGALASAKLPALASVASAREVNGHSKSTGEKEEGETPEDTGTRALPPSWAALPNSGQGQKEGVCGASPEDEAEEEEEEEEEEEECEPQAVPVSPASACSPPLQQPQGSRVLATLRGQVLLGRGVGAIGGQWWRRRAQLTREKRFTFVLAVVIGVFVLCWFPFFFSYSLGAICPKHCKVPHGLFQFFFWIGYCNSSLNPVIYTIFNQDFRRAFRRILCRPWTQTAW
- Protocol details: Off-target binding, α2B
- Particulars: read-out: Ki at α2B
Measurement kind: Ki (µM)

CNC(=O)[C@@]12C[C@@H]1[C@@H](n1cnc3c(NC)nc(C#Cc4cccs4)nc31)[C@H](O)[C@@H]2O    5.5

###

- Tgt: Alpha 1B adrenergic receptor (Homo sapiens (Human), UniProt P35368)
- Sequence (P35368 whole entry): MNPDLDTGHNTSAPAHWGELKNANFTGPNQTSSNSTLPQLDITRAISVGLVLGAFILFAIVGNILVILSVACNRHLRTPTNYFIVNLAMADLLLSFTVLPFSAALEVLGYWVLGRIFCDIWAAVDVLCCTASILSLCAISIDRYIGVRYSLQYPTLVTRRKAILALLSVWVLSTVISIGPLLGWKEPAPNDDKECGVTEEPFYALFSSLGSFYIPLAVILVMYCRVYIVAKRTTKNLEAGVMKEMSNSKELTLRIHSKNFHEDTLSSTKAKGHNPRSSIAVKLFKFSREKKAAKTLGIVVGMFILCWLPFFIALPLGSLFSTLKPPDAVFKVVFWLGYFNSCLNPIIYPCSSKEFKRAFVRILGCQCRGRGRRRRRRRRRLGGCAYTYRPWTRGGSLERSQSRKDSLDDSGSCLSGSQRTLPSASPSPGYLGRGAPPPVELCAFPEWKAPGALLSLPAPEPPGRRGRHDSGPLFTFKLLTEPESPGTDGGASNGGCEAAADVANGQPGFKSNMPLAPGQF
- Protocol details: Off-target binding, α1B
- Particulars: read-out: Ki at α1B
Measurement kind: Ki

CNC(=O)[C@@]12C[C@@H]1[C@@H](n1cnc3c(NC)nc(C#Cc4cnccn4)nc31)[C@H](O)[C@@H]2O [Compound 7]    9.4 µM

###

- Tgt: h5HT2B (Homo sapiens (Human), UniProt P41595)
- Sequence (P41595 whole entry): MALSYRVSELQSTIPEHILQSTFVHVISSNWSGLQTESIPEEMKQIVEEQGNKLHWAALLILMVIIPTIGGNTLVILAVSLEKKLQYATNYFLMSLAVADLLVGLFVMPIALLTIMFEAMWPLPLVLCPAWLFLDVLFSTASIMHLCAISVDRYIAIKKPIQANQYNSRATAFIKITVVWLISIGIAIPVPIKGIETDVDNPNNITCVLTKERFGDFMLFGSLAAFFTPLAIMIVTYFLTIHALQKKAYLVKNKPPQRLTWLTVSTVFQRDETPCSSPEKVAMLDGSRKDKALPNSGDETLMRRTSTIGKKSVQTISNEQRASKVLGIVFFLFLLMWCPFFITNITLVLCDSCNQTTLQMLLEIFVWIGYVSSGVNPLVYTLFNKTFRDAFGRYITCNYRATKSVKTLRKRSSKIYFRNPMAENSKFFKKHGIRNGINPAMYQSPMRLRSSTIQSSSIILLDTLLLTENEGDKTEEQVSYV
- Protocol details: Off-target binding, 5HT2B
- Particulars: read-out: Ki class at 5HT2B
Measurement kind: Ki

CNC(=O)C12CC1C(n1cnc3c(NCc4cccc(Cl)c4)nc(C#Cc4ccc(F)c(F)c4)nc31)C(O)C2O (single isomer, unassigned)    1 to 10 µM

###

- Tgt: hA1AR (Homo sapiens (Human), UniProt P30542)
- Sequence (P30542 whole entry): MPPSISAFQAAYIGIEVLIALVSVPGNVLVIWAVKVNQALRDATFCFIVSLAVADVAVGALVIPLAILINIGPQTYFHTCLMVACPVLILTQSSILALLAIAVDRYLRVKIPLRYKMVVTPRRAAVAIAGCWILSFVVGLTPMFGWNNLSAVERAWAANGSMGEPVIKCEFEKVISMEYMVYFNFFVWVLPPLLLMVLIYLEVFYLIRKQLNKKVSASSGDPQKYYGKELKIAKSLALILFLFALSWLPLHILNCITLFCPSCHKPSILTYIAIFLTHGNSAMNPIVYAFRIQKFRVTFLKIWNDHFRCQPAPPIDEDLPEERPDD
- Protocol details: Radioligand binding at hA1AR, CHO cell membranes, [3H]R-PIA
- Particulars: read-out: hA1AR % inhibition
Measurement kind: inhibition at 10 µM (%)

CNC(=O)[C@@]12C[C@@H]1[C@@H](n1cnc3c(NC)nc(C#CC4CCCCC4)nc31)[C@H](O)[C@@H]2O    15
CNC(=O)[C@@]12C[C@@H]1[C@@H](n1cnc3c(NC)nc(C#Cc4cc5ccccc5o4)nc31)[C@H](O)[C@@H]2O    13
CNC(=O)[C@@]12C[C@@H]1[C@@H](n1cnc3c(C)nc(C#Cc4ccc(C(C)(C)C)cc4)nc31)C(O)C2O (stereo in doubt)    15

###

- Tgt: DOR opiate receptor (Homo sapiens (Human))
- Sequence (P41143 whole entry): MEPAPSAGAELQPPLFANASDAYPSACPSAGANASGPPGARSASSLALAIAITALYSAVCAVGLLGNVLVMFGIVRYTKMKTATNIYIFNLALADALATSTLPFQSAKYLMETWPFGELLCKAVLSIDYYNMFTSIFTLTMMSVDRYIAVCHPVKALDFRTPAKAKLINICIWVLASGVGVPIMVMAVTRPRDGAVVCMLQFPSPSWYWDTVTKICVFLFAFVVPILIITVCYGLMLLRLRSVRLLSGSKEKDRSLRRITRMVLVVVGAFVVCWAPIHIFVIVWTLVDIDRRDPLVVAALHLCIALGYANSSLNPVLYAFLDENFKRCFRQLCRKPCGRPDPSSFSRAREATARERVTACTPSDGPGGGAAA
- Protocol details: Off-target binding, DOR
- Particulars: read-out: Ki class at DOR
pKi: −log10 of the molar value.
Measurement kind: pKi

CNC(=O)C12CC1C(n1cnc3c(NCc4cccc(Cl)c4)nc(C#Cc4ccc(F)c(F)c4)nc31)C(O)C2O (single isomer, unassigned) [MRS5698]    5.00 to 6.00

###

- Protocol details: Bioavailability / plasma pharmacokinetics
- Type: in vivo
- Particulars: rat, iv, i.v. 1 mg/kg, male SD rats
Measurement kind: half-life (min)

CNC(=O)[C@@]12C[C@@H]1[C@@H](n1cnc3c(NC)nc(C#Cc4ccc(Cl)s4)nc31)[C@H](O)[C@@H]2O [Compound 32]    42

###

- Test system: 5 CYP isozymes (1A2, 2C9, 2C19, 2D6, 3A4)
- Protocol details: Inhibition of 5 CYP isozymes
- Format: in vitro ADME
Measurement kind: IC50

CNC(=O)[C@]12CC1[C@@H](n1cnc3c(NC)nc(C#Cc4ccc(Br)s4)nc31)[C@H](O)C2O (stereo partly shown)    > 7 µM

###

- Tgt: UniProtKB P28335
- Sequence (P28335 33-458 limits assumed): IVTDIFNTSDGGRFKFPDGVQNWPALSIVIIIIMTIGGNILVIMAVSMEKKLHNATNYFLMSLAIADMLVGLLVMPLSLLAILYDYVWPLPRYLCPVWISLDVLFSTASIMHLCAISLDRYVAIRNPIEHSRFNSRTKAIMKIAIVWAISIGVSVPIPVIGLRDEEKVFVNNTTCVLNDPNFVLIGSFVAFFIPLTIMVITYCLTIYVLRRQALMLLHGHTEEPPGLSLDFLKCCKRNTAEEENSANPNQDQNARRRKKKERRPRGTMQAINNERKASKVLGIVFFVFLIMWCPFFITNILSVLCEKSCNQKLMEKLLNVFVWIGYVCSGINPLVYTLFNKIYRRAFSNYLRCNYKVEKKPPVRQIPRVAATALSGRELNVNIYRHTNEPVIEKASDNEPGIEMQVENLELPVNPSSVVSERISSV
- Protocol details: Off-target binding, 5HT2C
- Particulars: Ki class at 5HT2C
pKi: −log10 of the molar value.
Measurement kind: pKi

CNC(=O)C12CC1C(n1cnc3c(NCc4cccc(Cl)c4)nc(C#Cc4ccc(F)c(F)c4)nc31)C(O)C2O (single isomer, unassigned) [MRS5698]    5.00 to 6.00

###

- Tgt: hA2AAR (Homo sapiens (Human), UniProt P29274)
- Sequence (P29274 whole entry): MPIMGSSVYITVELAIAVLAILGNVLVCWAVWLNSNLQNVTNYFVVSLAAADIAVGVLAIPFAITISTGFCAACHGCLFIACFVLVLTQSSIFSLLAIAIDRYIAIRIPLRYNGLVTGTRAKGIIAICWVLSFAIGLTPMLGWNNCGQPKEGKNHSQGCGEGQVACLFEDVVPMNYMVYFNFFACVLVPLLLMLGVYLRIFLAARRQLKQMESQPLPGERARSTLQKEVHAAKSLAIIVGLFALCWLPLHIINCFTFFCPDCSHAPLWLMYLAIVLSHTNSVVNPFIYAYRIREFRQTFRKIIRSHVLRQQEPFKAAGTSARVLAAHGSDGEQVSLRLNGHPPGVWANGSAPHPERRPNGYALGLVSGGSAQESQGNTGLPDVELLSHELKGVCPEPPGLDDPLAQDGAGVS
- Protocol details: Radioligand binding at hA2AAR, HEK293 cell membranes, [3H]CGS21680
- Particulars: inhibition of binding at 10 μM
A collection of compounds and their measured hA2AAR % inhibition
Measurement kind: hA2AAR % inhibition (%)

CNC(=O)[C@]12CC1[C@@H](n1cnc3c(NCCc4ccccc4)nc(N=[N+]=[N-])nc31)[C@H](O)C2O (some centres unmarked)    71
CCNc1nc(N=[N+]=[N-])nc2c1ncn2[C@@H]1C2C[C@]2(C(=O)NC)C(O)[C@H]1O (some centres unmarked)    11
CNC(=O)[C@]12CC1[C@@H](n1cnc3c(NC)nc(-n4cc(-c5cnccn5)nn4)nc31)[C@H](O)C2O (some centres unmarked)    8
CNC(=O)[C@]12CC1[C@@H](n1cnc3c(NC)nc(-n4cc(-c5ccc(Br)s5)nn4)nc31)[C@H](O)C2O (some centres unmarked)    7
CNC(=O)[C@]12CC1[C@@H](n1cnc3c(NC)nc(-n4cc(-c5ccc(F)c(F)c5)nn4)nc31)[C@H](O)C2O (some centres unmarked)    39
CNC(=O)[C@]12CC1[C@@H](n1cnc3c(NC)nc(-n4cc(-c5cnn(C)c5)nn4)nc31)[C@H](O)C2O (some centres unmarked)    1
CNC(=O)[C@]12CC1[C@@H](n1cnc3c(NC4CCC4)nc(N=[N+]=[N-])nc31)[C@H](O)C2O (some centres unmarked)    46
